- Method notes: activity coefficient (dimensionless); of the first substance listed, at infinite dilution; xn = mol fraction of the nth substance listed
- Test settings: 353.15 K; 101 kPa; Liquid; Chromatography; x1 = 0
The following molecules are shown together with reported activity coefficient values.

Molecule	activity coefficient
CCCCO [butan-1-ol] + CCCCCC[n+]1ccn(C)c1.O=S(=O)([N-]S(=O)(=O)C(F)(F)F)C(F)(F)F	1.33
CC(C)O [propan-2-ol] + CCCCn1cc[n+](C)c1.F[P-](F)(F)(F)(F)F	2.25
CC(C)CO [2-methyl-1-propanol] + CCCCn1cc[n+](C)c1.COS(=O)(=O)[O-]	1.12
CC(C)(C)O [2-methylpropan-2-ol] + CCCCn1cc[n+](C)c1.COS(=O)(=O)[O-]	1.22

// data source = the NIST ThermoML archive (doi:10.1021/je800355e)
